# System: MOLT-4 leukemia
# experiment.description: NCI-60 one-dose screen, 48 h
# recorded.conditions: 10 µM unless noted
Compounds without any hit were thinned out: in the full panel of roughly 83,000, 20% have a hit. Calls of active or inactive are those of the source. How the source made its calls: active means growth percent below 10; inactive means the rest.
Classes used: active, inactive

| compound | class.name |
| --- | --- |
| C=CCn1c(SCC(=O)Nc2ccc(C(=O)/C=C/c3ccc(Cl)cc3)cc2)nnc1-c1ccc(Cl)c(Cl)c1 | inactive |
| O=C(/C=C/c1ccc(Cl)cc1)c1ccc(Nc2ccnc3cc(Cl)ccc23)cc1 | inactive |
| CCOc1ccc(-c2cc(C3(S(=O)(=O)c4ccc(C)cc4)CC=CC3)on2)cc1 | inactive |
| CCC(=C(c1ccc(OCCN(CC)CC)cc1)c1ccc(OCCN(CC)CC)cc1)c1ccc(Cl)cc1 | active |
| c1ccc2[nH]c(-c3ccc(-c4nccc5c4[nH]c4ccccc45)cc3)nc2c1 | inactive |
| O=C(CSc1nnc(-c2ccc(Cl)c(Cl)c2)n1-c1ccccc1)Nc1ccc(C(=O)/C=C/c2ccc(Cl)cc2)cc1 | inactive |
| [2H]C([2H])([2H])Oc1ccc(/C=C/C(=O)/C=C(/C=C/c2ccc(OC([2H])([2H])[2H])c(OC([2H])([2H])[2H])c2OC([2H])([2H])[2H])OB(F)F)c(OC([2H])([2H])[2H])c1OC([2H])([2H])[2H] | inactive |
| COc1cc(/C=C2\C(=O)N(CCOc3cc(O)c4c(=O)cc(-c5ccccc5)oc4c3)c3ccccc32)cc(OC)c1O | inactive |
| O=c1n(C2OC(CO)C(O)C2O)ccc2nccn12 (configuration not stated) | inactive |
| COc1ccc(C(c2cc(OC)c(OC)c(OC)c2)n2cncn2)cc1O (configuration not stated) | inactive |
| CCOC(=O)c1ccc2c(c1)[n+](=O)c(C(C)=O)c(C(F)(F)F)n2[O-] | active |
| CN(C)C(=O)OCc1ccc2c(Cl)cc(Cl)c(O)c2n1 | inactive |
| COc1ccc(S(=O)(=O)Oc2ccc(-c3sc4cc(OS(=O)(=O)c5ccc(OC)cc5)ccc4c3C(=O)c3ccc(OCCN4CCCCC4)cc3)cc2)cc1 | inactive |
| COc1ccc2c(O)cc3c(c2c1)[C@H](CCl)CN3C(=O)c1cc2cc(NC(=O)CCN3CCOCC3)ccc2[se]1 | inactive |
| N#C/C(=N\Nc1ccccc1)C(=O)Nc1cc(-c2ccccc2)nn1-c1ccccc1 | inactive |
| CCN1C(=O)N(CC)C2C1NN=c1s/c(=C\c3ccccc3)c(=O)n12 (configuration not stated) | inactive |
| CCCCCCCCOC(=O)c1c(C)[nH]c(/C=C2\N=C(c3ccc[nH]3)C=C2OC)c1C | active |

Where do these numbers come from? They come from PubChem BioAssay (NCI).
